- Test system: biotinyl-Ile-oxazolone
- assayDetails: self-aminoacylation, catalytic enhancement (BIO) (fold over background); higher = more active; k-Seq, kA / k0A0; sequences stand for … in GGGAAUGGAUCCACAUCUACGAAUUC…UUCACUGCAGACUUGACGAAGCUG
Variants at the floor of the assay were thinned out.
Consider the following sequences; for each one, report its self-aminoacylation.
Note: the reply should be a number with no unit written.

Give recorded self-aminoacylation with biotinyl-Ile-oxazolone for the following sequence: AUUGCCAUGGUCAUCGAGUGA [Fam2.1 aminoacylation ribozyme variant] 4.75

Could you share what self-aminoacylation was measured for CUACUUCCAACAAUCCGUCUG [Fam1A.1 aminoacylation ribozyme variant] , tested on biotinyl-Ile-oxazolone? 0.794

// map AAGUUUGAUAAUGGUCGCAAG [Fam3.1 aminoacylation ribozyme variant] to recorded self-aminoacylation (system: biotinyl-Ile-oxazolone) 0.891

Give self-aminoacylation (biotinyl-Ile-oxazolone) of the following sequence: AUUCACCAAGGUCACCGGGUG [Fam2.2 aminoacylation ribozyme variant] 5.1

Find self-aminoacylation (biotinyl-Ile-oxazolone) for the entry AUUCCCCUGGUCAUCGAGUUA [Fam2.1 aminoacylation ribozyme variant] 1.33

Field: self-aminoacylation (biotinyl-Ile-oxazolone). Entry: CUACUUCAACCAAACGGUCUG [Fam1A.1 aminoacylation ribozyme variant] 0.745

API: value(readout=self-aminoacylation, system=biotinyl-Ile-oxazolone) for record UUUACCCUGGUGAUCGAGUGA [Fam2.1 aminoacylation ribozyme variant] 3.39

Provide the documented self-aminoacylation with biotinyl-Ile-oxazolone as the system for AUUACCCCGGUCAUCGAGUUA [Fam2.1 aminoacylation ribozyme variant] 1.17

Request - read-out self-aminoacylation | tested on biotinyl-Ile-oxazolone | sequence AUUACCCUGGCCAUCGAGAGA [Fam2.1 aminoacylation ribozyme variant] 0.69

Checklist item: self-aminoacylation tested on biotinyl-Ile-oxazolone, entry UUUACCCUGAUCAUCGAGUGA [Fam2.1 aminoacylation ribozyme variant] , value? 3.92

Short answer please: self-aminoacylation, biotinyl-Ile-oxazolone, entry UUUCACCUAGGUCAGCGGGUG [Fam2.2 aminoacylation ribozyme variant] 3.75

Query the reported self-aminoacylation for biotinyl-Ile-oxazolone; item: AUUACUCUGGUCAUCGAGUAA [Fam2.1 aminoacylation ribozyme variant] 2.21

Recorded self-aminoacylation for AUGCACCUAGGUCACCGGGUG [Fam2.2 aminoacylation ribozyme variant] with biotinyl-Ile-oxazolone, please? 3.86

API: value(readout=self-aminoacylation, system=biotinyl-Ile-oxazolone) for record AUUGACCUAGGUCAUCGGUUG [Fam2.2 aminoacylation ribozyme variant] 1.34

Param readout= self-aminoacylation; system= biotinyl-Ile-oxazolone; entry= CCAGACUUCAAGCAACCGGUC [Fam1B.1 aminoacylation ribozyme variant] ; returns value. 1.47

Kindly state the measured self-aminoacylation obtained for AUUCACCAAGGUCUUCGGGUG [Fam2.2 aminoacylation ribozyme variant] with biotinyl-Ile-oxazolone. 4.41

Write down the reported self-aminoacylation of AUUGCCCUGGUCAUCUAGUGA [Fam2.1 aminoacylation ribozyme variant] , test system: biotinyl-Ile-oxazolone. 3.81

Query for biotinyl-Ile-oxazolone: what self-aminoacylation does the record show for AUUACGUUGGUCAUCGAGUGA [Fam2.1 aminoacylation ribozyme variant] ? 3.1
